B1: 6NMW (parent)
chain: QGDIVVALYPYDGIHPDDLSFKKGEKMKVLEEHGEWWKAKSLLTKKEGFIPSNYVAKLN

Variants of: B1
ASSAY COMMENT: folding stability dG (cDNA display proteolysis); higher = more stable
EXPERIMENTAL SETUP: PBS, room temperature
Each record here notes measured folding stability dG.

>  <MUTATION DESCRIPTOR>
P16S

>  <folding stability dG, kcal/mol>
2.98

$$$$
>  <MUTATION DESCRIPTOR>
K22S

>  <folding stability dG, kcal/mol>
3.08

$$$$
>  <MUTATION DESCRIPTOR>
N53H

>  <folding stability dG, kcal/mol>
3.87

$$$$
>  <MUTATION DESCRIPTOR>
D18S

>  <folding stability dG, kcal/mol>
3.94

$$$$
>  <MUTATION DESCRIPTOR>
D3C

>  <folding stability dG, kcal/mol>
4.72

$$$$
>  <MUTATION DESCRIPTOR>
K23L

>  <folding stability dG, kcal/mol>
2.79

$$$$
>  <MUTATION DESCRIPTOR>
S41Q

>  <folding stability dG, kcal/mol>
0.463

$$$$
>  <MUTATION DESCRIPTOR>
E32N

>  <folding stability dG, kcal/mol>
3.83

$$$$
>  <MUTATION DESCRIPTOR>
V6R

>  <folding stability dG, kcal/mol>
1.9

$$$$
>  <MUTATION DESCRIPTOR>
D17W

>  <folding stability dG, kcal/mol>
4.86

$$$$
>  <MUTATION DESCRIPTOR>
D18Y

>  <folding stability dG, kcal/mol>
4.04

$$$$
>  <MUTATION DESCRIPTOR>
G2D

>  <folding stability dG, kcal/mol>
3.46

$$$$
>  <MUTATION DESCRIPTOR>
P51E

>  <folding stability dG, kcal/mol>
0.647

$$$$
>  <MUTATION DESCRIPTOR>
E32P

>  <folding stability dG, kcal/mol>
2.54

$$$$
>  <MUTATION DESCRIPTOR>
N53Q

>  <folding stability dG, kcal/mol>
3.5

$$$$
>  <MUTATION DESCRIPTOR>
L58M

>  <folding stability dG, kcal/mol>
3.45

$$$$
>  <MUTATION DESCRIPTOR>
M27Y

>  <folding stability dG, kcal/mol>
-0.162

$$$$
>  <MUTATION DESCRIPTOR>
L19P

>  <folding stability dG, kcal/mol>
-0.243

$$$$
>  <MUTATION DESCRIPTOR>
L42D

>  <folding stability dG, kcal/mol>
0.832

$$$$
>  <MUTATION DESCRIPTOR>
P16H

>  <folding stability dG, kcal/mol>
2.92

$$$$
>  <MUTATION DESCRIPTOR>
E25H

>  <folding stability dG, kcal/mol>
0.959

$$$$
>  <MUTATION DESCRIPTOR>
L58A

>  <folding stability dG, kcal/mol>
2.62

$$$$
>  <MUTATION DESCRIPTOR>
K45T

>  <folding stability dG, kcal/mol>
3.1

$$$$
>  <MUTATION DESCRIPTOR>
D12H

>  <folding stability dG, kcal/mol>
4.08

$$$$
>  <MUTATION DESCRIPTOR>
P51W

>  <folding stability dG, kcal/mol>
1.33

$$$$
>  <MUTATION DESCRIPTOR>
V5W

>  <folding stability dG, kcal/mol>
4.11

$$$$
>  <MUTATION DESCRIPTOR>
V29T

>  <folding stability dG, kcal/mol>
0.988

$$$$
>  <MUTATION DESCRIPTOR>
K23D

>  <folding stability dG, kcal/mol>
1.3

$$$$
>  <MUTATION DESCRIPTOR>
F49V

>  <folding stability dG, kcal/mol>
2.3

$$$$
>  <MUTATION DESCRIPTOR>
F49P

>  <folding stability dG, kcal/mol>
-0.719

$$$$
>  <MUTATION DESCRIPTOR>
Y11I

>  <folding stability dG, kcal/mol>
0.264

$$$$
>  <MUTATION DESCRIPTOR>
P51A

>  <folding stability dG, kcal/mol>
0.249

$$$$
>  <MUTATION DESCRIPTOR>
G13V

>  <folding stability dG, kcal/mol>
1.14

$$$$
>  <MUTATION DESCRIPTOR>
V55K

>  <folding stability dG, kcal/mol>
0.066

$$$$
>  <MUTATION DESCRIPTOR>
E35N

>  <folding stability dG, kcal/mol>
4.01

$$$$
>  <MUTATION DESCRIPTOR>
P51M

>  <folding stability dG, kcal/mol>
1.59

$$$$
>  <MUTATION DESCRIPTOR>
G13N

>  <folding stability dG, kcal/mol>
1.32

$$$$
>  <MUTATION DESCRIPTOR>
G24W

>  <folding stability dG, kcal/mol>
2.51

$$$$

These data points were gathered from the MegaScale stability set (Tsuboyama et al. 2023).
